- measured-on: DiB1; DiB-RM (lipocalin Blc mutants) (Escherichia coli, UniProt P0A901, A36C/F53A/N76F/S89Y/S107A/L141N)
- Construct: E. coli XJb(DE3) expression from pBAD, TALON then size exclusion; monomer in solution
- Sequence (P0A901 20-177 A36C/F53A/N76F/S89Y/S107A/L141N): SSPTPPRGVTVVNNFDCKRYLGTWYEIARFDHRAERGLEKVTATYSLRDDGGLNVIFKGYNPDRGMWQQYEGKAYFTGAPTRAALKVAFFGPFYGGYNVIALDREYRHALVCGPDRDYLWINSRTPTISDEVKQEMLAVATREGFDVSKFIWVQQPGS
- test-description: fluorescence titration
- Format: binding
- measurement-context: DiB-RM-V90E; apparent Kd; 1 μM chromophore, varied protein; excitation 490 nm
experimental-readout: Kd (nM)
Response body: numeric value in nM, unit text excluded.

I am curious: what Kd value has been reported for CCN(CC)c1ccc2c(c1)[B-](F)(F)[N+]1=C(C)N(C)C(=O)C1=C2 [M739] ?
380

* * *

- measured-on: DiB1; DiB-RM (lipocalin Blc mutants) (Escherichia coli, UniProt P0A901, A36C/F53A/N76F/E90V/S107A/L141N)
- Construct: E. coli XJb(DE3) expression from pBAD, TALON then size exclusion; monomer in solution
- Sequence (P0A901 20-177 A36C/F53A/N76F/E90V/S107A/L141N): as the sequence (P0A901 20-177 A36C/F53A/N76F/S89Y/S107A/L141N) above, with Y70S, E71V counted along it
- test-description: fluorescence titration
- measurement-context: DiB-RM-Y89S; apparent Kd; 1 μM chromophore, varied protein; excitation 490 nm
experimental-readout: Kd
Remember to follow the number with its unit.

I am curious: what Kd value has been reported for CCN(CC)c1ccc2c(c1)[B-](F)(F)[N+]1=C(C)N(C)C(=O)C1=C2 ?
660 nM

Every entry's value here was drawn from paper PMC8601599.
